Biological target: bovine pancreatic trypsin (Bos taurus, UniProt P00760)
Sequence (P00760 24-246): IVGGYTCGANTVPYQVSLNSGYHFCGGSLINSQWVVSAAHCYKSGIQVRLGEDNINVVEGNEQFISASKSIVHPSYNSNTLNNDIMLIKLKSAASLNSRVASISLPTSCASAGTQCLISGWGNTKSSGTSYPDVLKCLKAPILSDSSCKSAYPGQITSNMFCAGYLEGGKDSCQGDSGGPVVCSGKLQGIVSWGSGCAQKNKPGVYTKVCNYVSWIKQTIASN
pIC50: −log10 of the molar value.
reportedMetric: pIC50

chemSmiles: Cc1nc(N)ccc1CNC(=O)Cn1c(C)cnc(NNC(=O)OCC(C)(C)C)c1=O
reportedMetric: pIC50
observedValue: 4.00 to 5.60

chemSmiles: Cc1nc(N)ccc1CNC(=O)Cn1c(C)cnc(NNC(=O)NCc2ccc(Cl)cc2)c1=O
reportedMetric: pIC50
observedValue: ≤ 4.00

chemSmiles: C#CCOC(=O)N(C)Nc1ncc(C)n(CC(=O)NCc2ccc(N)nc2C)c1=O
reportedMetric: pIC50
observedValue: 4.00 to 5.60

chemSmiles: C=CCCOC(=O)NNc1ncc(C)n(CC(=O)NCc2ccc(N)nc2C)c1=O
reportedMetric: pIC50
observedValue: ≤ 4.00

chemSmiles: C#CCOC(=O)NNc1ncc(C)n(CC(=O)NCc2ccc(N)nc2C)c1=O
reportedMetric: pIC50
observedValue: ≤ 4.00

chemSmiles: C=CCOC(=O)NNc1ncc(C)n(CC(=O)NCc2ccc(N)nc2C)c1=O
reportedMetric: pIC50
observedValue: ≤ 4.00

chemSmiles: Cc1nc(N)ccc1CNC(=O)Cn1c(C)cnc(NNC(=O)NCCC(C)(C)C)c1=O
reportedMetric: pIC50
observedValue: 4.00 to 5.60

chemSmiles: Cc1nc(N)ccc1CNC(=O)Cn1c(C)cnc(NNC(=O)NCc2ccc3c(c2)OCO3)c1=O
reportedMetric: pIC50
observedValue: ≤ 4.00

###

molecular target: human α-thrombin (Homo sapiens, UniProt P00734); assay: Thrombin (fIIa) chromogenic assay, IC50; format: biochemical; details: 30 min incubation of enzyme with inhibitor; read-out: fIIa IC50 (30 min)

chemSmiles: Cc1nc(N)ccc1CNC(=O)Cn1c(C)cnc(NNC(=O)Cc2ccccc2)c1=O
IC50: ≤ 0.1 µM
--
chemSmiles: C#CCOC(=O)N(CC)Nc1ncc(C)n(CC(=O)NCc2ccc(N)nc2C)c1=O
IC50: ≤ 0.1 µM
--
chemSmiles: C=CCOC(=O)NNc1ncc(C)n(CC(=O)NCc2ccc(N)nc2C)c1=O
IC50: ≤ 0.1 µM
--
chemSmiles: Cc1nc(N)ccc1CNC(=O)Cn1c(C)cnc(NNS(=O)(=O)c2ccccc2F)c1=O
IC50: ≤ 0.1 µM
--
chemSmiles: C#CCOC(=O)N(C)Nc1ncc(C)n(CC(=O)NCc2ccc(N)nc2C)c1=O
IC50: ≤ 0.1 µM
--
chemSmiles: C=CCCOC(=O)NNc1ncc(C)n(CC(=O)NCc2ccc(N)nc2C)c1=O
IC50: ≤ 0.1 µM
--
chemSmiles: Cc1nc(N)ccc1CNC(=O)Cn1c(C)cnc(NNS(=O)(=O)c2ccccc2C(F)(F)F)c1=O
IC50: ≤ 0.1 µM
--
chemSmiles: Cc1nc(N)ccc1CNC(=O)Cn1c(C)cnc(NNC(=O)NCCC(C)(C)C)c1=O
IC50: ≤ 0.1 µM
--
chemSmiles: C#CCOC(=O)NNc1ncc(C)n(CC(=O)NCc2ccc(N)nc2C)c1=O
IC50: ≤ 0.1 µM
--
chemSmiles: Cc1nc(N)ccc1CNC(=O)Cn1c(C)cnc(NNC(=O)NCc2ccc(Cl)cc2)c1=O
IC50: ≤ 0.1 µM

###

Reported values: IC50 for human plasmin (Homo sapiens, UniProt P00747), one per item.
reportedMetric: IC50

chemSmiles: Cc1nc(N)ccc1CNC(=O)Cn1c(C)cnc(NNC(=O)Cc2ccccc2)c1=O
observedValue: 2.5 to 100 µM
//
chemSmiles: Cc1nc(N)ccc1CNC(=O)Cn1c(C)cnc(NNC(=O)NCc2ccc3c(c2)OCO3)c1=O
observedValue: ≥ 100 µM
//
chemSmiles: Cc1nc(N)ccc1CNC(=O)Cn1c(C)cnc(NNS(=O)(=O)c2ccccc2C(F)(F)F)c1=O
observedValue: ≥ 100 µM
//
chemSmiles: Cc1nc(N)ccc1CNC(=O)Cn1c(C)cnc(NNC(=O)NCCC(C)(C)C)c1=O
observedValue: ≥ 100 µM
//
chemSmiles: C=CCCOC(=O)NNc1ncc(C)n(CC(=O)NCc2ccc(N)nc2C)c1=O
observedValue: ≥ 100 µM
//
chemSmiles: Cc1nc(N)ccc1CNC(=O)Cn1c(C)cnc(NNC(=O)OCC(C)(C)C)c1=O
observedValue: ≥ 100 µM

###

pIC50: −log10 of the molar value.
Reported values: pIC50 for Factor Xa (Homo sapiens), one per item.
reportedMetric: pIC50

chemSmiles: COc1ccccc1CNC(=O)NNc1ncc(C)n(CC(=O)NCc2ccc(N)nc2C)c1=O
testTarget: Factor Xa (Homo sapiens)
Sequence (P00742 235-488 limits assumed): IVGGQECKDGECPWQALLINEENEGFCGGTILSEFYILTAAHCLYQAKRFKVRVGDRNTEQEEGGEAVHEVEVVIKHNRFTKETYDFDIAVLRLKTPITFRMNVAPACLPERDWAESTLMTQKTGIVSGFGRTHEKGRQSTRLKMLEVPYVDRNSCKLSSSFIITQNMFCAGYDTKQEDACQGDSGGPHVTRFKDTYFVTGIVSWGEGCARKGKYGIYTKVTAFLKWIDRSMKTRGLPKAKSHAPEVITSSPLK
Sequence (P00742 41-179 partner limits assumed): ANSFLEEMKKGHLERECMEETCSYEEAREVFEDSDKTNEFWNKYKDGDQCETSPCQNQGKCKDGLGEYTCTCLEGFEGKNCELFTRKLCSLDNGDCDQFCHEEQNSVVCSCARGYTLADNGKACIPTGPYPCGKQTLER
observedValue: ≤ 4.00

chemSmiles: Cc1nc(N)ccc1CNC(=O)Cn1c(C)cnc(NNC(=O)OCC(C)(C)C)c1=O
testTarget: Factor Xa (Homo sapiens)
observedValue: ≤ 4.00

chemSmiles: Cc1nc(N)ccc1CNC(=O)Cn1c(C)cnc(NNC(=O)NCCC(C)(C)C)c1=O
testTarget: Factor Xa (Homo sapiens)
observedValue: 4.00 to 5.60

chemSmiles: C#CCOC(=O)N(C)Nc1ncc(C)n(CC(=O)NCc2ccc(N)nc2C)c1=O
testTarget: Factor Xa (Homo sapiens)
observedValue: ≤ 4.00
